The following molecules each carry a recorded IC50 for 5-HT2B (Homo sapiens).
Answers are plain numbers, in nM.

INSERT INTO measurements (molecule, property, experimental_value) VALUES
  ('COc1ccc(OC)c(CCNCc2cc(C)cc(Cl)c2)c1 [Compound 2-1]', 'IC50', 84.9);

Query molecule follows.
Lookup: Requested field: IC50. Item: COc1ccc(OC)c(CCNCc2cc(C)cc(F)c2)c1 [Compound 2-2]
Found: 321

* * *

- ASSAY_REMARKS: Terminal plasma and brain concentrations in mice
- Assay type: in vivo
- EXPERIMENTAL_SETUP: C57BL/6J, mouse, plasma, intraperitoneal, 10 mg/kg, 10 mg/kg IP, read-out: Terminal Plasma Total Concentration (uM) at 15 min, Mean
PROPERTY: concentration at 15 min (µM)
Numbers only, in µM.

Lookup: Fill blank: measured concentration at 15 min of the compound COc1ccc(OC)c(CCNCc2cc(C)cc(F)c2)c1 [Compound 2-2] is ____.
Found: 3.38

* * *

- ASSAY_REMARKS: Terminal plasma and brain concentrations in mice
- Assay type: in vivo
- EXPERIMENTAL_SETUP: C57BL/6J, mouse, plasma, intraperitoneal, 3 mg/kg, 3 mg/kg IP, read-out: Terminal Plasma Free Concentration (uM) at 15 min, Mean
PROPERTY: concentration at 15 min (µM)
Give bare numbers, in µM.

Lookup: Return reported concentration at 15 min; argument: COc1ccc(OC)c(CCNCc2cc(C)cc(F)c2)c1
Found: 0.082

* * *

- ASSAY_REMARKS: Terminal plasma and brain concentrations in mice
- Type: in vivo
- EXPERIMENTAL_SETUP: C57BL/6J, mouse, brain, intraperitoneal, 10 mg/kg, 10 mg/kg IP, read-out: Terminal Brain Free Concentration (uM) at 15 min, Mean
- Protocol: Prior to the onset of procedures, animals were weighed and allocated into 5 groups by a statistician based on body weight. Animals sharing a cage were dosed with the same drug treatments to avoid cross contamination between groups. […] Animals were weighed prior to dosing and the body weight recorded. Food and water intake were not monitored. […] Behaviors of note after dosing were recorded. […]
PROPERTY: concentration at 15 min (µM)
Answers are plain numbers, in µM.

Lookup: What does the record list as concentration at 15 min for COc1ccc(OC)c(CCNCc2cc(C)cc(F)c2)c1 ?
Found: 0.175

* * *

- STUDY_SYSTEM: UniProt:P14842
- Sequence (P14842 whole entry): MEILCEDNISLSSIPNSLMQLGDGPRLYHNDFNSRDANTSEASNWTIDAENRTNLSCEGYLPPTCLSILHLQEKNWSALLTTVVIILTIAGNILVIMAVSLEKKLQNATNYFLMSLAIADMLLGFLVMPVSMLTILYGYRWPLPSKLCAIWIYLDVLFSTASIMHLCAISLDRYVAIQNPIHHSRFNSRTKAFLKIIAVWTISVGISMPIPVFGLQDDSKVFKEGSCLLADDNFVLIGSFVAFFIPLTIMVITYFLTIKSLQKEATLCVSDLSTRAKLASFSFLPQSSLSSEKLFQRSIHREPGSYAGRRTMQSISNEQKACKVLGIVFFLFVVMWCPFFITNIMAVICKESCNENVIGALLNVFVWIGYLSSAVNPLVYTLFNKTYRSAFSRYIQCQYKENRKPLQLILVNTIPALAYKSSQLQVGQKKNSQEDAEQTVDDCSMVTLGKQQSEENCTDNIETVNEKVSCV
- ASSAY_REMARKS: IPOne, rat 5-HT2A
Kindly state pEC50 for each of the entries shown.
Answers are plain numbers, as −log10 of the molar value.

INSERT INTO results (line_notation, study_system, experimental_value) VALUES
  ('COc1ccc(OC)c(CCNCc2cc(C)cc(Cl)c2)c1', 'UniProt:P14842', 8.51);

Now examine the next entry.
Lookup: Query: pEC50; subject: COc1ccc(OC)c(CCNCc2cc(C)cc(F)c2)c1
Found: 8.14

* * *

- ASSAY_REMARKS: Terminal plasma and brain concentrations in mice
- Assay type: in vivo
- EXPERIMENTAL_SETUP: C57BL/6J, mouse, brain, intraperitoneal, 3 mg/kg, 3 mg/kg IP, read-out: Terminal Brain Free Concentration (uM) at 15 min, Mean
PROPERTY: concentration at 15 min (µM)
Give bare numbers, in µM.

Lookup: Query (molecule): COc1ccc(OC)c(CCNCc2cc(C)cc(F)c2)c1 ; field requested: concentration at 15 min
Found: 0.039

* * *

- ASSAY_REMARKS: Terminal plasma and brain concentrations in mice
- Type: in vivo
- EXPERIMENTAL_SETUP: C57BL/6J, mouse, brain, intraperitoneal, 1 mg/kg, 1 mg/kg IP, read-out: Terminal Brain Conc (ng/g) at 15 min, Mean
PROPERTY: concentration at 15 min
Numeric answer plus unit only.

Lookup: Given the entry COc1ccc(OC)c(CCNCc2cc(C)cc(F)c2)c1 , report its measured concentration at 15 min.
Found: 182 ng/g

* * *

- STUDY_SYSTEM: 5-HT2A (Homo sapiens)
- ASSAY_REMARKS: 5-HT2A receptor binding in human post-mortem frontal cortical tissue
PROPERTY: IC50 (nM)
Numbers only, in nM.

Lookup: Record request: IC50 value, item COc1ccc(OC)c(CCNCc2cc(C)cc(F)c2)c1
Found: 69

* * *

- ASSAY_REMARKS: Terminal plasma and brain concentrations in mice
- Type: in vivo
- EXPERIMENTAL_SETUP: C57BL/6J, mouse, plasma, intraperitoneal, 10 mg/kg, 10 mg/kg IP, read-out: Terminal Plasma Free Concentration (uM) at 15 min, Mean
PROPERTY: concentration at 15 min (µM)
Give bare numbers, in µM.

Lookup: Would you kindly share the measured concentration at 15 min for COc1ccc(OC)c(CCNCc2cc(C)cc(F)c2)c1 [Compound 2-2] ?
Found: 0.277

* * *

So I've got a bunch of compounds here, and I need their EC50 values.
- STUDY_SYSTEM: 5-HT2A (Homo sapiens, UniProt P28223)
- Sequence (P28223 whole entry): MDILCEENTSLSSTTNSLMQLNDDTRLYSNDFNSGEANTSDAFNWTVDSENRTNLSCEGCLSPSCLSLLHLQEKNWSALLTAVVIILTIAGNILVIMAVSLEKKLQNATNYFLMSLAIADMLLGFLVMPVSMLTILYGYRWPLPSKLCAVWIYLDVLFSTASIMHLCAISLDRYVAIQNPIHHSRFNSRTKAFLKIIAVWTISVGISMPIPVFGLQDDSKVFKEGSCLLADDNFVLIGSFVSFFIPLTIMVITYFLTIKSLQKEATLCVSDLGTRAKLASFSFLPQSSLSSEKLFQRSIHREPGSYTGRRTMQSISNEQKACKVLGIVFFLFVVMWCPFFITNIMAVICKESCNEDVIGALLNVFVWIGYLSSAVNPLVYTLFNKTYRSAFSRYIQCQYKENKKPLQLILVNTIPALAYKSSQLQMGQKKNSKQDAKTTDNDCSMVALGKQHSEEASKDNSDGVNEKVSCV
- ASSAY_REMARKS: IPOne, 5-HT2A
- Type: cell-based
- Set-up: expressed in transfected cells
Numbers only, in nM.

INSERT INTO assay_data (compound, unit_symbol, experimental_value) VALUES
  ('COc1ccc(OC)c(CCNCc2cc(C)cc(F)c2)c1 [Compound 2-2]', 'nM', 9.19);

Next item in the queue.
Lookup: Param readout = EC50; param system = 5-HT2A (Homo sapiens, UniProt P28223); param query = COc1ccc(OC)c(CCNCc2cc(C)cc(Cl)c2)c1 [Compound 2-1] ; response: value
Found: 2.8

* * *

- ASSAY_REMARKS: Terminal plasma and brain concentrations in mice
- Format: in vivo
- EXPERIMENTAL_SETUP: C57BL/6J, mouse, plasma, intraperitoneal, 10 mg/kg, 10 mg/kg IP, read-out: Terminal Plasma Conc (ng/mL) at 15 min, Mean
- Experimental: Prior to the onset of procedures, animals were weighed and allocated into 5 groups by a statistician based on body weight. Animals sharing a cage were dosed with the same drug treatments to avoid cross contamination between groups. […] Animals were weighed prior to dosing and the body weight recorded. Food and water intake were not monitored. […] Behaviors of note after dosing were recorded. […]
PROPERTY: concentration at 15 min (ng/mL)
Numbers only, in ng/mL.

Lookup: Item under review: COc1ccc(OC)c(CCNCc2cc(C)cc(F)c2)c1 . Reported concentration at 15 min?
Found: 1020

* * *

- STUDY_SYSTEM: 5-HT7D (Homo sapiens, UniProt P34969)
- Sequence (P34969 whole entry): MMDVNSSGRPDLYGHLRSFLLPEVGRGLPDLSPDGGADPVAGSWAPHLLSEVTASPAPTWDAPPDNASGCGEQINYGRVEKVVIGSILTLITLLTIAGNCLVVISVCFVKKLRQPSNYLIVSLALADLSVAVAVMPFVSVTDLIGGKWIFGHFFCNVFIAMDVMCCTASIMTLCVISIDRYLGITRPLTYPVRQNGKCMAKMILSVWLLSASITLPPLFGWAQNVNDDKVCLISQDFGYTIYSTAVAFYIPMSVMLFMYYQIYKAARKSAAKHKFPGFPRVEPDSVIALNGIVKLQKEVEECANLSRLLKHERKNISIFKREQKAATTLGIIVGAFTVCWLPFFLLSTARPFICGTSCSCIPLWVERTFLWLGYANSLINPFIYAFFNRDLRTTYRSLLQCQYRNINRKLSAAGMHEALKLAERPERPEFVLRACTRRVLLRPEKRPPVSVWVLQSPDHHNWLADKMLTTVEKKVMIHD
- ASSAY_REMARKS: cAMP, 5-HT7D
Assign EC50 to each entry below.

INSERT INTO assay_data (line_notation, property, experimental_value) VALUES
  ('COc1ccc(OC)c(CCNCc2cc(C)cc(F)c2)c1', 'EC50', '> 100 µM');

Lookup: Which value of EC50 has been reported for COc1ccc(OC)c(CCNCc2cc(C)cc(Cl)c2)c1 in the records?
Found: > 100 µM

* * *

Exercise: for every item that follows, state its recorded EC50.
- STUDY_SYSTEM: 5-HT2C (Homo sapiens, UniProt P28335)
- Sequence (P28335 33-458): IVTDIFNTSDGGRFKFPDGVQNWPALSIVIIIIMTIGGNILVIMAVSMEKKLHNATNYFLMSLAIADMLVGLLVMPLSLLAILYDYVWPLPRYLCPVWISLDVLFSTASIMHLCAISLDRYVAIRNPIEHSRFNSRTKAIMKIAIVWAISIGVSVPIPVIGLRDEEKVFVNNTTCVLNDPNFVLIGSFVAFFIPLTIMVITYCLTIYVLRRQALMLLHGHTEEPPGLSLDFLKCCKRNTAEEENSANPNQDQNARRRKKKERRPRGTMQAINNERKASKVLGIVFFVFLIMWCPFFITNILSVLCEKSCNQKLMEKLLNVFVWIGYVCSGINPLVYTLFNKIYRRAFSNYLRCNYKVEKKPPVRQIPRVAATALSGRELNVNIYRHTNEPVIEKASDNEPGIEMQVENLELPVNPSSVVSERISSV
- ASSAY_REMARKS: Ca++ (calcium mobilization), 5-HT2C
- Description: In vitro pharmacology studies were performed to evaluate the effects of compound 2-1 on functional activity of several 5-HT receptors using recombinant target overexpression cell culture systems. […] In vitro pharmacology studies were performed to evaluate the effects of compound 2-2 on functional activity at several 5-HT receptors using recombinant target overexpression cell culture systems. […] In Table 4, 5-HT receptor selectivity was calculated using ΔΔlog(Emax/EC50). […]
One number for each entry, in nM.

INSERT INTO results (compound, property, unit_symbol, experimental_value) VALUES
  ('COc1ccc(OC)c(CCNCc2cc(C)cc(F)c2)c1 [Compound 2-2]', 'EC50', 'nM', 73.5);

Note: attention shifts to another entry.
Lookup: Give the measured EC50 of COc1ccc(OC)c(CCNCc2cc(C)cc(Cl)c2)c1 [Compound 2-1] .
Found: 42.2

* * *

- ASSAY_REMARKS: Terminal plasma and brain concentrations in mice
- Type: in vivo
- EXPERIMENTAL_SETUP: C57BL/6J, mouse, brain, intraperitoneal, 1 mg/kg, 1 mg/kg IP, read-out: Terminal Brain Total Concentration (uM) at 15 min, Mean
PROPERTY: concentration at 15 min (µM)
Give bare numbers, in µM.

Lookup: Fill in the blank: the reported concentration at 15 min of COc1ccc(OC)c(CCNCc2cc(C)cc(F)c2)c1 [Compound 2-2] is ____.
Found: 0.6

* * *

- STUDY_SYSTEM: 5-HT1F (Homo sapiens, UniProt P30939)
- Sequence (P30939 whole entry): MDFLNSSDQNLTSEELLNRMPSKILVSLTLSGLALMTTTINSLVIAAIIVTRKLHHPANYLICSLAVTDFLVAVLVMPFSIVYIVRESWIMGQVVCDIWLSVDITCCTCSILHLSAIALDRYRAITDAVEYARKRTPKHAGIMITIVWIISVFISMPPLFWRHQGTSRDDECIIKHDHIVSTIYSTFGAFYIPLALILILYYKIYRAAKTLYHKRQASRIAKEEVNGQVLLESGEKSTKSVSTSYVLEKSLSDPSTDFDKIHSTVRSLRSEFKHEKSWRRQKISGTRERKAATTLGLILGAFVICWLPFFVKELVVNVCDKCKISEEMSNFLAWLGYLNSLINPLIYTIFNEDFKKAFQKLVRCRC
- ASSAY_REMARKS: cAMP, 5-HT1F
pEC50: −log10 of the molar value.
For each record, write down the corresponding pEC50.

INSERT INTO results (compound, experimental_value) VALUES
  ('COc1ccc(OC)c(CCNCc2cc(C)cc(F)c2)c1 [Compound 2-2]', '< 4.60');

Could you now consider this next compound?
Lookup: Which pEC50 value belongs to COc1ccc(OC)c(CCNCc2cc(C)cc(Cl)c2)c1 [Compound 2-1] ?
Found: < 5.05
